Values from paper PMC2984483

- targetEntity: H-NS-His6 (Escherichia coli)
- Sequence: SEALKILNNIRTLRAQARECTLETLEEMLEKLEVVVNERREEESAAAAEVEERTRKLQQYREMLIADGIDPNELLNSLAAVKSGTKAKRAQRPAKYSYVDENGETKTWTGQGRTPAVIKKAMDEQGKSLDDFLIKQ
- experimentalDetails: competitive EMSA
- reportedConditions: EMSA: 0.1 ng 32P probe, 15 ul, 30 min at 25 C (stated for GadE/RcsBD56E), 6% native PAGE; H-NS: 100-200 ng PCR fragment plus pBR322 digest, 15 min room …
measuredQuantity: binding

Exercise: If you can, please state the reported binding value of TCGTTATGCAGCGATATTTTTTGCTGTTCATGATAAATATCGAATGAACGACGAATGAGGATCACCGAGCAGACATGAGTCATGATTATCCCTTATATTTCATACTGCGATTATTTCAATTTCAGTATACTAATGAAATGATGCCAGACTGTTTCTTAGCGCAAAAACTGCCAGATTTGGTAGGACCAAAATTTATCCACAAAGTAGTTTTGCATAACAGTTAATTGATAATAAGTAAATGCAGCACGAATATATTTTCGCACAGCGTATAGCTTA (double strand) [gadW promoter] .
Solution: binds

###

- targetEntity: H-NS-His6 (Escherichia coli)
- Sequence: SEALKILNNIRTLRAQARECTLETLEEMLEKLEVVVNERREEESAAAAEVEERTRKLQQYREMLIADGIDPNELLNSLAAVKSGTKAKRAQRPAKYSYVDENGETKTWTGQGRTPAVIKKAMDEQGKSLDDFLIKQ
- experimentalDetails: competitive EMSA
- reportedConditions: EMSA: 0.1 ng 32P probe, 15 ul, 30 min at 25 C (stated for GadE/RcsBD56E), 6% native PAGE; H-NS: 100-200 ng PCR fragment plus pBR322 digest, 15 min room …
measuredQuantity: binding

Exercise: Short answer please: binding, H-NS-His6 (Escherichia coli), entry TGGCCTTAGGCCTTTTGAGTATGGCAACGTTTTCATAAAAATTGCTGCAAACAAAAATGTCATACTTTTTGCGCGGCCCCACCCCGCGCTTTTTTTTGCCTGTTATTTATCCTGTAAAAAAATATGTACATGAGAAATTACTATAAAAATTTGTACTATTAGTAAAAC (double strand) [adiY promoter]
Solution: binds

Exercise: Notebook: pull reported binding for H-NS-His6 (Escherichia coli), entry TTATATATCCATGTTGGCGATAATCCCTTTGTATGTACTGTGCATCATCGCTATTACAAATCCTAATAATTCATTTCCACACAGGATAAGTAGATGAAGAAAAAAATTGAATC (double strand) [ydeP promoter]
Solution: binds

Exercise: Short answer please: binding, H-NS-His6 (Escherichia coli), entry AATGATACTTGTCTGAAAAACAGATTTACGACGATATAAAATAATAATACTTATATGTTCGCTGATTTTAAGCACCGAGACTATCCGGTCTTTTACCAAATAATGAAGAATAATCCCTCCCTGGAAGATAATTGTAAAAAACAACAGCATAAGAATTAATCTTAGGATAAATTTTTATTTATCATGGCCTTTTGAACGCTGAAAAGTAGCGCTCTGCAAAGTAAACCCCGCTATAGTTATGCTATGCATTTGTCTTTAATGATATCTCGTCATTATATTAACAGGATGAAATTATCATTA (double strand) [yhiM promoter]
Solution: binds

###

- targetEntity: H-NS-His6 (Escherichia coli) (UniProt P0ACF8)
- Sequence: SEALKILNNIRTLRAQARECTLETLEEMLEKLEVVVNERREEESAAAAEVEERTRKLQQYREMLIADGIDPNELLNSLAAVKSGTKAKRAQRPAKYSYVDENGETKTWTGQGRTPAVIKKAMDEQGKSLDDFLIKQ
- experimentalDetails: competitive EMSA
- reportedConditions: EMSA: 0.1 ng 32P probe, 15 ul, 30 min at 25 C (stated for GadE/RcsBD56E), 6% native PAGE; H-NS: 100-200 ng PCR fragment plus pBR322 digest, 15 min room …
measuredQuantity: binding

Exercise: Look at this sequence and give its reported binding. ATCCTGCACGCTCCTAATTCTTTGACCGAGCTAGTTATGGCGCGGAGTATTAGTTACGCTTGACAGAGTGTAAAACAAAACATTTAAATCATAACGACAAATAATTTTGCGGAGAGCACTGTGGATACGGAATTGTTAAAAACTTTCCTGGAAGTTAGCCGAACGCGTCACTTTGGTCGAGCGGCTGAATCGCTCTATCTGACCCAGTCAGCAGTGAGCTTTCGAATCAGACAACTGGAAAATCAACTGGGTGTGAACCTT (double strand) [hdfR promoter]
Solution: binds

Exercise: Would you kindly share the measured binding for CGCATAATTTCCAGCAATCTTTGTTTATTTGCAATTATTTTTGTTGGGCTTTTTGTAGGTTATTTGTACAGCAAAATGGCGCTTGTACATCTATTTCCCCCAATGCAGGATGATAAATATCACGGGAGAATAGAGAATCATCAATCAGGTAAGAGTCTGGAATTTCACACTGTACCCTTTATACTGCCCT (double strand) [rcsD promoter] ?
Solution: binds

Exercise: For GAATAAAAATAGATTTTATGTACTTTTAAAACAATGCACTATATTATGGGGTGATGGATATTCATGTCACGCCCCAAAATTAACTGAGTTCACCTAAACAGAAAGGATATAAACATCAGACAGGTTTACGTTACTATCAGGCATATCACCTCAGAATCAGATGAAAACTATAAAGAAATATCTATTATGGTTTTAA (double strand) [slp-dctR promoter] , what is its reported binding?
Solution: binds

Exercise: Please give the measured binding for this sequence: TTGCTCATGCAAAGACTAACAATCCATTAAAATAGTAAGTGCTCCGGACAATTTTCCATGGATTATTTTCTGAACATTTTTCTTTGGCAAAGATGATGAATTTTGATGGTAAGGAATATTACTTCTGGTTCTCAGTAAAATCCTTTCGTAATACTATGTAATCAAGAAGTTTATGGCTGGTAAAAATAACGTCTTGCATTCACCAATAATATGTAAATAAACCCATCTATAGATGGTAAAAATAGGTTGTGGCAATTATCATTGCATCATTCCCTTTTCGAATG (double strand) [cadC promoter]
Solution: binds
